molecular target: KLK5 (UniProt Q9Y337 67-293, limits assumed); assay: cell-based or functional assay
Sequence (Q9Y337 67-293 limits assumed): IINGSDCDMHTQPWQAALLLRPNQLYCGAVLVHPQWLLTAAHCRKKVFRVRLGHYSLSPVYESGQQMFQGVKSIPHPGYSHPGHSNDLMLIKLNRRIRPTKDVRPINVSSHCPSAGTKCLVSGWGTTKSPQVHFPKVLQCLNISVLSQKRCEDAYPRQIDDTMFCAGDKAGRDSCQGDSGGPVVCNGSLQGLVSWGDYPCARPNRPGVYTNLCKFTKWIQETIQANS
MEASURED PROPERTY: KLK5 IC50 nM pH 7.5 (enzymatic activity) (nM)
Please give a number only; it is taken to be in nM.

Worked examples, 2 binders total:
# input Return the recorded KLK5 IC50 nM pH 7.5 (enzymatic activity) value; entry: Spink9-236.Fc (SEQ ID NO: 60) (Fc fusion, Mutant SPINK9 domain fused directly to a C-terminal IgG Fc) IECAKQTKQMVDCSHYKKLPPEQQLMCTREYDPICGSDGKTYKNDCFFCSKVKKTDGTLKFVHFGKCEPKSCDKTHTCPPCPAPEAAGGPSVFLFPPKPKDTLMISRTPEVTCVVVDVSHEDPEVKFNWYVDGVEVHNAKTKPREEQYNSTYRVVSVLTVLHQDWLNGKEYKCKVSNKALPAPIEKTISKAKGQPREPQVYTLPPSREEMTKNQVSLTCLVKGFYPSDIAVEWESNGQPENNYKTTPPVLDSDGSFFLYSKLTVDKSRWQQGNVFSCSVLHEALHSHYTQKSLSLSPGK
# output 1.5

# input Supply reported KLK5 IC50 nM pH 7.5 (enzymatic activity) belonging to this binder: Spink9-30.Fc (SEQ ID NO: 55) (Fc fusion, Mutant SPINK9 domain fused directly to a C-terminal IgG Fc) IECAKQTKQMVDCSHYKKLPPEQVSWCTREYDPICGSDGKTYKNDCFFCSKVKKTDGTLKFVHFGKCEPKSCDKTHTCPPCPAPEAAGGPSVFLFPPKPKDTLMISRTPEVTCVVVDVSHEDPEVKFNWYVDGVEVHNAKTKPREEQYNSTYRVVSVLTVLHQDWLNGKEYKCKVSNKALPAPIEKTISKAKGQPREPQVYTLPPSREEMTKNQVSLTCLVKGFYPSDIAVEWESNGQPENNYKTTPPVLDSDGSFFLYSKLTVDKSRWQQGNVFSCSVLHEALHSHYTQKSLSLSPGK
# output 2.2

Now turn to the next binder.
# input Please supply the value of reported KLK5 IC50 nM pH 7.5 (enzymatic activity) for the item Spink9-112.K62G.Fc (SEQ ID NO: 56) (Fc fusion, Mutant SPINK9 domain fused directly to a C-terminal IgG Fc) IECAKQTKQMVDCSHYKKLPPEQELYCTREYDPICGSDGKTYGNDCFFCSKVKKTDGTLKFVHFGKCEPKSCDKTHTCPPCPAPEAAGGPSVFLFPPKPKDTLMISRTPEVTCVVVDVSHEDPEVKFNWYVDGVEVHNAKTKPREEQYNSTYRVVSVLTVLHQDWLNGKEYKCKVSNKALPAPIEKTISKAKGQPREPQVYTLPPSREEMTKNQVSLTCLVKGFYPSDIAVEWESNGQPENNYKTTPPVLDSDGSFFLYSKLTVDKSRWQQGNVFSCSVLHEALHSHYTQKSLSLSPGK
# output 1.1

Attribution: patent US20260028389A1
